Listed here: items and their measured Pair-wise inhibition (%).
- target-or-system: recombinant pentameric gH complex (Towne strain) (human cytomegalovirus, Towne strain) (UniProt P17176)
- Sequence (P17176 30-715, one chain of several): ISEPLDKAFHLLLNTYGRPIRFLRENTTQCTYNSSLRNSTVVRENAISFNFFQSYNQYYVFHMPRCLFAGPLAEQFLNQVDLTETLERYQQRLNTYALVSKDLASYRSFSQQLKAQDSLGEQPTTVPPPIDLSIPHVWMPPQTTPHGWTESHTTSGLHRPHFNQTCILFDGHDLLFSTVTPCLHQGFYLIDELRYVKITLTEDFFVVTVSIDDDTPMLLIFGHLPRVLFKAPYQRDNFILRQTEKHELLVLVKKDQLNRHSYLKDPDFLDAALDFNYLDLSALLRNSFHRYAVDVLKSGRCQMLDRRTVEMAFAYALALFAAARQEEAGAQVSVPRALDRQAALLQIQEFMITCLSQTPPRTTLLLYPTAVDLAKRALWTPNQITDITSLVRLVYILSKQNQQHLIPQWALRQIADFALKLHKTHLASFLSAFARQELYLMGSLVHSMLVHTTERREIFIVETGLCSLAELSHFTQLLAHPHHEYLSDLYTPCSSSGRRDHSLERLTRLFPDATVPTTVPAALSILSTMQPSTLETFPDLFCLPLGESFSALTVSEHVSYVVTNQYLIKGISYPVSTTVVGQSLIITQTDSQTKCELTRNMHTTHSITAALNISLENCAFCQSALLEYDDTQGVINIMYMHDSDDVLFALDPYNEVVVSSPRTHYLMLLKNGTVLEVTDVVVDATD
- run-description: BLI competition on His-pentamer; competitor (antibody 2): 2-25
Response body: numeric value in %, unit text excluded.

Would you please look over these solved cases?
binder: 2-25 (antibody, V domains shown) VH: QVQLVESGAEVKKPGALVKVSCKASGYTFTNYAIHWVRQASGQRLEWMGWINAGRGNTKYSQKFQGRVTITRDTSASTAYMELSSLRSEDAAVYFCARDESTGDYYYYMDVWGKGTTVTVSS VL: SYELTQPPSVSVSPGQTASITCSGDRLDDKYASWYQQKAGQSPVLVIYQDNKRPSGIPERFSGSNSGNTATLTISGTQAMDEADYYCQAWDSDTYVFGTGTKVTVL
result-unit: %
Pair-wise inhibition (%): 104
--
binder: 2-18 (antibody, V domains shown) VH: EVQLVQSGGGLVQPGGSLRVSCAASGFSFSDHDMDWVRQAPGKGFEWVGRSRNKDYSSTTEYAASVRGRFTISRHTSEDLLYLELNTVKTEDTAVYFCARGPHHSDRSGYYGGTFDIWGQGTMVTVSS VL: DIQMTQSPSSVSASVGDRVIITCRASQGISSWLAWYQQKPGRAPRLLIYDASTLESGVPSRFSGRGSGTEFTLTINSLQPEDFATYYCQQGNMFPLTFGGGTKVEIK
result-unit: %
Pair-wise inhibition (%): 117
--
binder: 1-32 (antibody, V domains shown) VH: QVKLVESGGGVVQPGRSLRLSCAGSGFAFDNYAMHWVRQAPGKGLEWVAVISLEGRNKYYAGPAKGRFSISRDNSRNTVHLQMNSLRPEDTAVYFCARDMRYYYDSNGHYRNRYGMDVWGQGTTVIVSS VL: DIQMTQSPSSLSASVGDSVTITCQASQDINQFVSWYQQKPGKPPKLLIYDASNLESGVPSRFSGSGSGTHFTFTISSLQPDDIATYYCQQYENLFTFGPGTKVDIK
result-unit: %
Pair-wise inhibition (%): -33
--
binder: 1-103 (antibody, V domains shown) VH: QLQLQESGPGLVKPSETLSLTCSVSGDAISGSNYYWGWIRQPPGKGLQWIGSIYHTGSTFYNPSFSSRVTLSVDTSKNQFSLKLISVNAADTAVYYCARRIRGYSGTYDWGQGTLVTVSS VL: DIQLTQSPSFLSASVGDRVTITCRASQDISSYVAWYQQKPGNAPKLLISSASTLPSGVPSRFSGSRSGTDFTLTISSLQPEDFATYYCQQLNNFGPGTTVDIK
result-unit: %
Pair-wise inhibition (%): -20

Please find the next binder below.
Ask | Give the measured Pair-wise inhibition (%) for 1-150 (antibody, V domains shown) VH: QVQLVESGGGLVKPGGSLRLSCAASGFSFSAYYMSWIRQAPGKGLEWISYISSSGNTIYYTDSVKGRFTIARDNAKNSLYLQMNSLRAEDTGLYYCARDSYSKLADIEATEAFDVWGQGTMVAVSS VL: SYELTQPPSVSVAPGKTARITCGGNNIGSKSVHWYQQKPGQAPVMVIYYDSDRPSGIPERFSGSNSGNTATLTISRVEAGDEADYYCQVWDSGSDRVVFGGGTKLTVL
Reply | -22

Cited source: patent US11230591
